- assay_procedure: Cytotoxicity (SRB) against non-tumoral HMLE cells
- Format: cell-based, human
- experimental_parameters: human, HMLE cells (non-tumoral human mammary epithelial cells); increasing concentrations up to 100 μM; mean ± SD of at least three independent experiments; read-out: Normal Human Cell Lines, CC50, HMLE
measurement_label: CC50 at 48 h (µM)
Express the result in µM but write the number alone.

These recorded examples may help you get a feel for the data.
compound: COc1cccc(OC)c1/C=C/C(=O)c1cccc(Cl)c1 [b34]
CC50 at 48 h, µM: 9.42

compound: COc1cccc(OC)c1/C=C/C(=O)c1ccccc1 [b1]
CC50 at 48 h, µM: 9.47

compound: COc1cccc(OC)c1/C=C/C(=O)c1cccc(OCc2ccccc2)c1 [b12]
CC50 at 48 h, µM: 31.4

compound: COc1cccc(OC)c1/C=C/C(=O)c1ccc(-c2ccccc2)cc1 [b22]
CC50 at 48 h, µM: 2.21

compound: COc1cccc(OC)c1/C=C/C(=O)c1cccc(F)c1 [b32]
CC50 at 48 h, µM: 11.9

Problem: Look up CC50 at 48 h for this compound: COc1cccc(OC)c1/C=C/C(=O)c1cccc(O)c1 [b25]
Solution: 6.31

Problem: Could you do the same for COc1ccc(OC)c(C(=O)/C=C/c2c(OC)cccc2OC)c1 [b18] , please?
Solution: 2.48

Problem: Likewise for COc1cc(C(=O)/C=C/c2c(OC)cccc2OC)ccc1O [b29] ?
Solution: 6.31

Problem: Also COc1cccc(OC)c1/C=C/C(=O)c1ccc(Cl)c(Cl)c1 [b38] ?
Solution: 28.3

Problem: Another compound: COc1cccc(OC)c1/C=C/C(=O)c1ccccc1O [b24]
Solution: 8.96

Problem: Please answer likewise for COc1cccc(OC)c1/C=C/C(=O)c1ccc(C)cc1 [b4]
Solution: 13.8

Problem: # repeat for COc1cccc(OC)c1/C=C/C(=O)c1cccc(C)c1 [b3]
Solution: 16.2

Problem: Now consider COc1ccccc1C(=O)/C=C/c1c(OC)cccc1OC [b6] and answer again.
Solution: 4.01
